Target: T1, HLA class I molecule A01.01
T1 construct: Purified MHC class I complex; also called HLA-A01:01
Assay: competition with radiolabeled reference peptide on purified MHC I
Lab note - cut at 9 nM for IC50: criterion met if strictly below, criterion not met if not.

* TGSNEVTTRY (also called RBM27(+1)) | criterion not met
* ILDTAGLEEY (also called KRAS, Q61L) | criterion met
* ILDTAGREEY (also called NRAS, Q61R) | criterion met
* TTNAFSGEY (also called RAC1, P29S) | criterion met
* ILDTAGKEEY (also called NRAS, Q61K) | criterion not met
* YTTNAFSGEY (also called RAC1, P29S) | criterion not met
* GSNEVTTRY (also called RBM27(+1)) | criterion not met
* ILDTAGHEEY (also called KRAS, Q61H) | criterion not met
